Test system: NB-4
assayDetails: Antiproliferative activity against human NB4 cells after 48 hrs
Type: functional, cell-based
experimentalSetup: NB-4, 48 h
recordedMetric: IC50 (µM)
Only the number, expressed in µM, is required.

compound: C[C@@H]1N=C(c2ccccc2)c2cc(NC(=O)CCCCCCC(=O)NO)ccc2N(C)C1=O
IC50 (µM): 5.83

compound: CN1C(=O)CN=C(c2ccccc2)c2cc(NC(=O)CCCCCCC(=O)NO)ccc21
IC50 (µM): 2.5

Pending compound:
stdin: IC50 of CC1N=C(c2ccccc2)c2cc(NC(=O)CCCCCCC(=O)NO)ccc2N(C)C1=O (racemic) on NB-4?
stdout: 4.09
